System: SUDHL10
Assay Comment: Induction of cytotoxicity (CellTiter-Glo, 5 h), SUDHL10
Measurement Context: read-out: Cytotox SUDHL10 [M] (median); SUDHL10 cells, cytotoxicity induction, CellTiter-Glo, 5 h incubation, median
Recorded Endpoint: IC50

Cc1c2c(nn1C)CN(C)CCCn1c(C(=O)O)c(CCCOc3cccc4ccccc34)c3cccc-2c31 (single isomer, unassigned; enantiomer 1) [Example 1-34]: 4.53e-06 M
CCc1c2c(nn1C)COCCCCn1c(C(=O)O)c(CCCOc3cccc4ccccc34)c3cccc-2c31 (single isomer, unassigned; enantiomer 2) [Example 149]: > 3.3e-05 M
CN1CCCn2c(C(=O)O)c(CCCOc3cccc4ccccc34)c3cccc(c32)-c2c(nn(C)c2COc2ccc(N3CCN(S(=O)(=O)N(C)C)CC3)cc2)C1 (single isomer, unassigned; enantiomer 2) [Example 1-113]: 2.06e-05 M
Cn1nc(C(F)(F)F)c2c1COCCCCn1c(C(=O)O)c(CCCOc3cccc4ccccc34)c3cccc-2c31 (single isomer, unassigned) [Example 217]: 1.58e-05 M
CN1CCCn2c(C(=O)O)c(CCCOc3cccc4ccccc34)c3cccc(c32)-c2c(COc3ccc(N4CCN(S(C)(=O)=O)CC4)cc3)nn(C)c2C1 (single isomer, unassigned) [Example 1-47]: 1.32e-05 M
